A compilation of published IC50 results with BTK (Homo sapiens, UniProt Q06187).
Sequence (Q06187 whole entry): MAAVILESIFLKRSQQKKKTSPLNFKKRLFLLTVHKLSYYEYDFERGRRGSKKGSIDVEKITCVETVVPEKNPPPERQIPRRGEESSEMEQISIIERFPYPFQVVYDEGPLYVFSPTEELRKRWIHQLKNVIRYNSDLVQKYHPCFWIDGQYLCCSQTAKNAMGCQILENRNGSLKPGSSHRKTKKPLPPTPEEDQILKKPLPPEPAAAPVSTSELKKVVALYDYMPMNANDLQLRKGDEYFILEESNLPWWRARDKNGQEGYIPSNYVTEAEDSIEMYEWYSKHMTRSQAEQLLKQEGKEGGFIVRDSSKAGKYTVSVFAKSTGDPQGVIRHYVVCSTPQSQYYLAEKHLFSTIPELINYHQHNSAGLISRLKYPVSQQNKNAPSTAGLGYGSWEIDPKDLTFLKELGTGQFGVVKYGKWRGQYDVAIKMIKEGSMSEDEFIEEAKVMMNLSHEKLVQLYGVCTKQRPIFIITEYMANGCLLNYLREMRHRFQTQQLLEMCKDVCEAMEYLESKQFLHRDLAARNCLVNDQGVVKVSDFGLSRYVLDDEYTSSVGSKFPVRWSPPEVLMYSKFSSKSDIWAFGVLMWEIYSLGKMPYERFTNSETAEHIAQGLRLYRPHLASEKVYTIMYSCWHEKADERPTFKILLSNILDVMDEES

C=CC(=O)N1CC[C@]2(C1)C[C@H](n1c(NC(=O)c3ccc(-c4ccc(C)nc4)s3)nc3ccccc31)C2 ... 7.92 nM
C=CC(=O)Nc1cccc(-c2csc3c(=O)cc(N4CCOCC4)oc23)c1 ... < 1000 nM
N#Cc1ccccc1NCC(=O)N[C@@H]1CCCN(c2ncnc3[nH]ccc23)C1 ... 1000 to 10000 nM

# ---- query compound ----
Query :: Reported IC50 for "Cc1cc(-c2cc(Nc3cc4n(n3)CCCNC4)ncn2)ccc1CNC(=O)c1cnn(C(C)(C)C)c1" : what is it?
Result :: < 10 nM
